Molecular target: Lipoprotein lipase (Bos taurus)
Sequence (whole entry): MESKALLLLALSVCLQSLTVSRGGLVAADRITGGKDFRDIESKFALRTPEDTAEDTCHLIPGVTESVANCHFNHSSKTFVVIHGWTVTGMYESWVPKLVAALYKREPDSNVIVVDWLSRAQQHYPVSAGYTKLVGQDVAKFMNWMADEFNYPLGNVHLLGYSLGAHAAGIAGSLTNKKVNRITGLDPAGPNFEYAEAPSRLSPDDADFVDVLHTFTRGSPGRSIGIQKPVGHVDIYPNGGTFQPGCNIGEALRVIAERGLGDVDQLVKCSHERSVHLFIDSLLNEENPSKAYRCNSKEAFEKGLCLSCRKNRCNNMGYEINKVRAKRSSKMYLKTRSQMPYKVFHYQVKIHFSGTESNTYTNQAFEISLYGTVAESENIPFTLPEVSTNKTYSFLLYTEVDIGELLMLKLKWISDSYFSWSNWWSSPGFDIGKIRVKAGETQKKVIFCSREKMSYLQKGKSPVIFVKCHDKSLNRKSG
Test: Induction of bovine LPL stabilization using intralipid as substrate at 25 uM preincubated for 10 mins with human recombinant ANGPTL4 followed by substrate addition measured after 45 mins relative to control
The source made the active and inactive calls. The calls are words filed in the database; no cut-off is given here.
MEASUREMENT KIND: Activity

# example entries with known answers
[[record]]
compound_structure = "Cc1ccc(NC(=O)c2cc(N3C(=O)c4ccc(C#N)cc4C3=O)ccc2N2CCCCC2)cc1"
measurement_kind = "Activity"
result = "inactive"

[[record]]
compound_structure = "Cc1ccc(NC(=O)c2cc(N3C(=O)c4cccc(C(=O)O)c4C3=O)ccc2N2CCCCC2)cc1"
measurement_kind = "Activity"
result = "inactive"

[[record]]
compound_structure = "CC(C)c1ccc(NC(=O)c2cc(N3C(=O)c4ccc(C(=O)O)cc4C3=O)ccc2N2CCCCC2)cc1"
measurement_kind = "Activity"
result = "53.1%"

[[record]]
compound_structure = "Cc1ccc(NC(=O)c2cc(-c3cc4cc(C(=O)O)ccc4o3)ccc2N2CCCCC2)cc1"
measurement_kind = "Activity"
result = "67.9%"

[[record]]
compound_structure = "Cc1ccc(NC(=O)c2cc(N3C(=O)c4ccc(C(=O)O)cc4C3=O)ccc2Nc2ccccc2)cc1"
measurement_kind = "Activity"
result = "94.4%"


Below is a list of compounds. For each, state its recorded Activity.
1. O=C(O)c1ccc2c(c1)C(=O)N(c1ccc(N3CCCCC3)c(C(=O)Nc3ccccc3)c1)C2=O
2. CCCNc1ccc(N2C(=O)c3ccc(C(=O)O)cc3C2=O)cc1C(=O)Nc1ccc(C)cc1
3. Cc1ccc(NC(=O)c2cc(Nc3ccccc3)cc(N3C(=O)c4ccc(C(=O)O)cc4C3=O)c2)cc1
4. Cc1ccc(NC(=O)c2cc(NC(=O)c3cc(C(=O)O)ccc3C(=O)O)ccc2N2CCCCC2)cc1
5. O=C(O)c1ccc2c(c1)C(=O)N(c1ccc(Cl)c(C(=O)NCc3cccnc3)c1)C2=O
6. CCCCCCCCCCNc1ccc(N2C(=O)c3ccc(C(=O)O)cc3C2=O)cc1C(=O)Nc1ccc(C)cc1
7. CCc1ccc(NC(=O)c2cc(N3C(=O)c4ccc(C(=O)O)cc4C3=O)ccc2Nc2ccccc2)cc1

Return:
57%
39.7%
89.4%
38.8%
inactive
19.2%
60%
